These data points were gathered from the supplement of paper PMC9112550.

Tested on: Escherichia coli TOP10;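 also: peptides expressed intracellularly from a pBAD plasmid library in pooled LB shake-flask culture, induced with 0.3% L-arabinose, DNA abundance read by NGS, three biological replicates, DESeq2 with apeglm shrinkage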
Assay: shrunken log2 fold change of peptide-encoding DNA abundance (4.5 h post-induction vs induction); higher = less antimicrobial activity (less host growth inhibition)
Details: time post-induction: 4.5 h; library: site-saturation at positions 5, 18, 19, 20
shrunken log2 fold change by entry:
metric.name: shrunken log2 fold change

• RRIRDRPPRLPRPRPRPKPCPRP = 0.0155
• RRIRWRPPRLPRPRPRPPPMPRP = 0.72
• RRIRHRPPRLPRPRPRPLPQPRP = 0.348
• RRIRHRPPRLPRPRPRPFLHPRP = -0.449
• RRIRLRPPRLPRPRPRPYCYPRP = -0.238
